Hey, just so you know, these numbers are from a melting point compilation (Tetko et al.; mined from patent text by program, amines drawn as free bases though some values may be those of a salt).

PROPERTY_MEASURED: melting point

Solved entries (count: 5):
Cc1cc(C)cc(COC(=O)C(Cc2c[nH]c3ccccc23)NC(=O)C2CCCCC2)c1 (stereo not given) :: 143 to 144 °C
CCOC(=O)c1cnn(-c2c(Cl)cc(C(F)(F)F)cc2Cl)c1N :: 131 to 134 °C
O=C(Nc1cccc(OC2OC(CO)C(O)C2O)c1)C(F)(F)F (stereo not given) :: 133 to 135 °C
COc1cc(Cl)ncn1 :: 32 to 34 °C
COC(=O)C(=C1NCCCO1)[N+](=O)[O-] :: 132 to 133 °C

Req: Sample `CN(C(=O)OC(C)(C)C)c1cc(Oc2ccc(-c3ccccc3)cc2)ccc1[N+](=O)[O-]` — what was its melting point?
Resp: 166 to 167 °C

Req: Sample O=S(=O)(CC(F)(F)F)Nc1cccc2c1CCCC2c1c[nH]cn1 (single isomer, unassigned; (+)) — what was its melting point?
Resp: > 260 °C

----------
PROPERTY_MEASURED: melting point (°C)
A number alone suffices; assume °C.

Solved entries (count: 3):
Cn1c(=O)oc2cc(C(=O)CCN3CCN(c4ccc(F)cc4)CC3)ccc21 :: 149
COc1ccc(-c2ccc3cnc(Nc4ccc(N5CCN(CC(N)=O)CC5)c(F)c4)nn23)cn1 :: 217
Cn1cc(-c2cc3nccnc3[nH]2)c2cc(C(=O)O)ccc21 :: 350

Next up:
Req: Sample `O=C1CN(C(=O)N2CCOCC2)c2ccccc2N1` — what was its melting point?
Resp: 180

----------
Reported melting point values are given for each entry in this list.

Solved entries (count: 5):
CCC(CC)c1ccc(Cl)c2nc3n(c12)CCCCN3c1cc(C)cc2c1ncn2C :: 259 to 260 °C
COc1ccc(Cn2c(=O)c3cccnc3n(CCCCBr)c2=O)cc1 :: 80 to 82 °C
Nc1ccc2c(c1)c(CC(=O)O)cc(=O)n2Cc1ccc(Cl)cc1 :: 196 to 199 °C
Cc1noc(-c2ccc([C@H]3CN(C(=O)OC(C)(C)C)CCO3)cc2)n1 :: 116 °C
Cn1c(CC(C)(C)C(=O)O)c(C(=O)c2ccc(Cl)cc2)c2ccc(OCc3ccc4ccccc4n3)cc21 :: 203 to 205 °C

Req: Sample `OCc1nc(-c2ccccc2)ccc1Cl` — what was its melting point?
Resp: 69 to 70 °C

Req: Sample `COc1ccc([N+](=O)[O-])c(C(=O)O)c1OC` — what was its melting point?
Resp: 187 to 189 °C

Req: Sample `CCCCCS(=O)(=O)NC(=O)/C(C)=C/c1ccc(OCCCOC)cc1Oc1ncc(Cl)cc1Cl` — what was its melting point?
Resp: 116 to 117 °C

Req: Sample `CCC(CC)(CC(=O)Nc1ccc2ccc(OCc3ccc4cccc(F)c4n3)cc2c1)C(=O)O` — what was its melting point?
Resp: 141 to 142 °C

Req: Sample `Cc1cccc(-c2n[nH]cc2-c2ccc(F)c(-c3ccc(S(=O)(=O)CCO)cc3)c2)n1` — what was its melting point?
Resp: 88 to 90 °C

Req: Sample `CC(C)c1ccc2c(c1)c(SCC1CC1)c(CC(C)(C)C(=O)O)n2Cc1ccc(Cl)cc1` — what was its melting point?
Resp: 123 to 124 °C

Req: Sample `COc1ccc(CNc2c(-c3cc(Cl)ccc3O)c3cc(C(F)(F)F)ccc3[nH]c2=O)cc1` — what was its melting point?
Resp: 103 to 106 °C

Req: Sample C=C(C(=O)OC1CC2CCC(C1)N2C(C)=O)c1ccccc1 (centres undefined) — what was its melting point?
Resp: 104 to 107 °C

Req: Sample `CN(C(=O)c1ccc(Cl)cc1)c1ccccc1CCCC(=O)O` — what was its melting point?
Resp: 123 °C

Req: Sample `CC(C)c1noc(-c2ccccc2)c1-c1ccc(S(N)(=O)=O)cc1` — what was its melting point?
Resp: 205 °C

Req: Sample `CCCCn1c(=O)n(C)c(=O)c2nc(-c3ccc(/C=C/C(=O)O)cc3)[nH]c21` — what was its melting point?
Resp: > 300 °C

Req: Sample CCCCC1N=CC(CSc2ccccc2C(=O)O)(Cc2ccc(C(=O)O)c3ccccc23)N1 (centres undefined) — what was its melting point?
Resp: 272 to 274 °C

Req: Sample `CCC(O)(CC)c1cc(C)c(-c2cccc(OCc3ccc(CO)c(CO)c3)c2C)c(C)c1` — what was its melting point?
Resp: 105 to 107 °C

Req: Sample `O=C(O)CCCCCc1nc2ccccc2n1-c1ccccc1` — what was its melting point?
Resp: 132 to 133 °C

----------
Reported melting point values are given for each entry in this list.

Solved entries (count: 4):
Nc1ccccc1N(C=O)CCCCO :: 77 to 79 °C
Cc1cccc(-c2nnc(-c3ccccc3Cc3ccccc3)nn2)c1 :: 90 to 91 °C
CC(C)COP(C)(=O)CC(=O)CNC(=O)OC(C)(C)C (stereo not given) :: 65 to 68 °C
N#CCc1ccc(NC(=O)CNc2ccccc2F)cc1 :: 111 to 113 °C

Req: Sample `Cc1ccccc1-c1c(NC(=O)Nc2c(C)cccc2C(C)C)c(=O)oc2c(F)cc(F)cc12` — what was its melting point?
Resp: 219 to 220 °C

----------
PROPERTY_MEASURED: melting point

CCOC(=O)/C=C/c1ccc(/C=C(\C)c2ccc3c(c2)C(C)(C)CCC3(C)C)cc1 :: 126 to 127 °C
COC(=O)c1ccsc1N=C=S :: 63 to 65 °C

Req: Sample `Nc1nc(OCc2cccs2)ncc1F` — what was its melting point?
Resp: 92 to 94 °C

Req: Sample `COc1cc(Oc2cccc(C(F)(F)F)c2)nc(C(=O)NC2CC2)c1` — what was its melting point?
Resp: 106 to 109 °C

Req: Sample COc1ccccc1C=CC=C(CC(N)C(=O)O)C(=O)O (configuration not stated) — what was its melting point?
Resp: 187 to 189 °C

Req: Sample `CCOC(=O)N1CCc2nc3cc(C)ccc3c(C)c2CC1` — what was its melting point?
Resp: 121 °C

Req: Sample `COc1ccc2c(c1)C(N)=NCC2` — what was its melting point?
Resp: 114 to 118 °C

Req: Sample CC(C)CC(NC(=O)C1CCCCC1NC(=O)OCc1ccccc1)C(N)=O (configuration not stated) — what was its melting point?
Resp: 188 to 190 °C

Req: Sample `COc1ccccc1-n1ccc(=N)cc1` — what was its melting point?
Resp: 121 to 124 °C

Req: Sample `CCOCc1cc2ccccc2oc1=Nc1ccccc1` — what was its melting point?
Resp: 71 to 72 °C

Req: Sample `CS(=O)(=O)c1cc2c(c(C=O)c1O)CCC2` — what was its melting point?
Resp: 152 to 153 °C

Req: Sample `CC(=O)Nc1ccc2c(c1)OCCCO2` — what was its melting point?
Resp: 108 to 109 °C

Req: Sample CCC(C(=O)C(C)C(O)C(C)CCc1c(N=Nc2ccccc2)cc(C)c(O)c1C(=O)O)C1OC(CC)(C2CCC(O)(CC)C(C)O2)CC1C (configuration not stated) — what was its melting point?
Resp: 212 to 215 °C

Req: Sample `COC(=O)Cc1cccc2c1Sc1ccccc1S2` — what was its melting point?
Resp: 124 to 125 °C

Req: Sample `CCOC(=O)CCCC(=O)c1ccc(Br)s1` — what was its melting point?
Resp: 53 to 54 °C

Req: Sample `ClCc1nn(-c2ccccc2)c2c1CCCC2` — what was its melting point?
Resp: 100 °C

Req: Sample `Cc1c(-c2ccc(Cl)cc2)[nH]c2ccc(OCc3ccccc3)cc12` — what was its melting point?
Resp: 134 to 136 °C

----------
Reported melting point values are given for each entry in this list.
A number alone suffices; assume °C.

CCCC1=C(C(=O)OCC)C(c2ccccc2C#N)c2c[nH]nc2N1 (stereo not given) :: 211

Next up:
Req: Sample `CCCCCCCCCCCCCCCCSC(=O)Nc1ccc(NC(=O)NS(=O)(=O)c2ccc3ccccc3c2)cc1` — what was its melting point?
Resp: 190

----------
Reported melting point values are given for each entry in this list.

Solved entries (count: 5):
N#Cc1ccc2c(c1)Cc1cc(C#N)ccc1-2 :: 282 to 284 °C
O=C(O)C(ON=c1c2nccc3cccc(c32)n2cccc12)c1ccccc1 (stereo not given) :: 200 °C
CCS(=O)(=O)c1ncc(C(F)(F)F)cn1 :: 98 °C
COc1ccc(C(=O)C(C)NC(=O)C(F)(F)F)cc1 (stereo not given) :: 110 to 114 °C
Cn1nc(C(=O)NCC2(O)CN3CCC2CC3)c2ccccc21 (stereo not given) :: 147 to 149 °C

Req: Sample O=C(NC(Cc1ccccc1)C(=O)O)c1cc(-c2ccc(OCc3ccccc3)cc2)[nH]n1 (stereo not given) — what was its melting point?
Resp: 196 to 200 °C

Req: Sample `CCOCn1c(C(F)(F)F)cc(C#N)c1-c1ccc(Cl)cc1` — what was its melting point?
Resp: 83 to 84.5 °C

Req: Sample `CN(CCOc1ccc(C=C2SC(=O)NC2=O)cc1)c1ccccn1` — what was its melting point?
Resp: 177 to 179 °C

Req: Sample CC1(C2CCCC2)Cc2cc(OCCCCC(=O)O)c(Cl)c(Cl)c2C1=O (stereo not given) — what was its melting point?
Resp: 106 to 108 °C

Req: Sample `CC(C)=CCC/C(C)=C/COCC(=O)c1cc(C(C)C)c(O)c(C(C)C)c1` — what was its melting point?
Resp: 70 to 71 °C
